molecular target: mu-opioid receptor (MOR) (Rattus norvegicus, UniProt P33535); construct: Rat cortices were homogenized using 50 mM Tris, pH 7.4, and centrifuged at 16,500 rpm for 10 min; from tissue; host or cells: rat cortex membranes; assay: MOR radioligand competition binding assay ([3H]-DAMGO); details: Mu screening results, experiment 1; unit inferred; read-out: Ki (Exp 1)
Sequence (P33535 whole entry): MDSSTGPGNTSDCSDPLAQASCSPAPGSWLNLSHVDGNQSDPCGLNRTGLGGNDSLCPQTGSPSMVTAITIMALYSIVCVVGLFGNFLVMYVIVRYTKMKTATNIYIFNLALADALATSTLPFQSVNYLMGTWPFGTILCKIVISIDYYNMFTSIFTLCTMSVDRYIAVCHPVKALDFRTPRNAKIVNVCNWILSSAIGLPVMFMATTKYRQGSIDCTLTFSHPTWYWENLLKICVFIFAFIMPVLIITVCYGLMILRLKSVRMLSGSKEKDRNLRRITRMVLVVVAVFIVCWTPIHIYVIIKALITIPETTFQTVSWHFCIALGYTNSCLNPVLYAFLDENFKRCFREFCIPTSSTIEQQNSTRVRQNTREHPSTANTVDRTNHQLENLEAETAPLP
MEASURED ENDPOINT: Ki (nM)
Numbers only here, please. The scale is nM.

Query: Tell me its Ki given Cc1cc(O)cc(C)c1C[C@@H](CN1C(=N)NC[C@@H]1Cc1ccccc1)N1C[C@H](Cc2ccccc2)NC1=N as the entry.
Result: 230

Query: Tell me its Ki given N=C1NC[C@H](Cc2ccccc2)N1C[C@H](Cc1ccccc1)N1C[C@H](Cc2ccc(O)cc2)NC1=N as the entry.
Result: 135

Query: Tell me its Ki given Cc1cc(O)cc(C)c1C[C@@H](CN1C(=N)NC[C@@H]1Cc1ccccc1)N1C[C@H](CC(C)C)NC1=N as the entry.
Result: 350

Query: Tell me its Ki given Cc1cc(O)cc(C)c1C[C@H]1CNC(=N)N1C[C@H](CC(C)C)N1C[C@H](Cc2ccccc2)NC1=N as the entry.
Result: 59.6

Query: Tell me its Ki given N=C1NC[C@H](Cc2ccc(O)cc2)N1C[C@H](Cc1ccccc1)N1C[C@H](Cc2ccc(O)cc2)NC1=N as the entry.
Result: 403

Query: Tell me its Ki given CC(C)C[C@H]1CN([C@@H](Cc2ccc(O)cc2)CN2C(=N)NC[C@@H]2Cc2ccc(O)cc2)C(=N)N1 as the entry.
Result: 2350

Query: Tell me its Ki given Cc1cc(O)cc(C)c1C[C@H]1CN([C@@H](CC(C)C)CN2C(=N)NC[C@@H]2Cc2ccccc2)C(=N)N1 as the entry.
Result: 67.4
